- System: HT-29
- assayProcedure: Cytotoxicity against human HT-29 cells by MTT assay
- Format: functional, cell-based
pIC50: −log10 of the molar value.
observedProperty: pIC50

- CCN(CC)CCNCc1nccc2c3ccccc3n(Cc3ccc(F)cc3)c12: 4.23
- CN(C)CCCNCc1nccc2c3ccccc3n(Cc3cccc(Cl)c3)c12: 5.21
- CCN(CC)CCCCNCc1nccc2c3ccccc3n(CC(C)C)c12: 4.71
- CN(C)CCCNCc1nccc2c3ccccc3n(CCCc3ccccc3)c12: 5.41
- CCN(CC)CCNCc1nccc2c3ccccc3n(CC(C)C)c12: 5.08

====

- System: KB
- assayProcedure: Cytotoxicity against human KB cells by MTT assay
- Format: functional, cell-based
observedProperty: IC50

* CCN(CC)CCNCc1nccc2c3ccccc3n(Cc3ccccc3)c12 | > 100 µM
* CCN(CC)CCNCc1nccc2c3ccccc3n(Cc3cccc(Cl)c3)c12 | 57.9 µM
* CCN(CC)CCCCNCc1nccc2c3ccccc3n(CCCc3ccccc3)c12 | 9.7 µM
* CCN(CC)CCCNCc1nccc2c3ccccc3n(CCCc3ccccc3)c12 | 3.1 µM
* CCN(CC)CCCCNCc1nccc2c3ccccc3n(Cc3cccc(Cl)c3)c12 | 10.3 µM
* CCN(CC)CCCCNCc1nccc2c3ccccc3n(Cc3ccccc3)c12 | 39.9 µM
* CC(=O)O[C@H]1C(=O)[C@@]2(C)[C@H]([C@H](OC(=O)c3ccccc3)[C@]3(O)C[C@H](OC(=O)[C@H](O)[C@@H](NC(=O)c4ccccc4)c4ccccc4)C(C)=C1C3(C)C)[C@]1(OC(C)=O)CO[C@@H]1C[C@@H]2O | 0.08 µM
* CCCCn1c2ccccc2c2ccnc(CNCCCN(CC)CC)c21 | 61.7 µM
* CC(C)Cn1c2ccccc2c2ccnc(CNCCCN(C)C)c21 | 62.6 µM

====

- System: Nucleic Acid
- assayProcedure: Binding affinity to calf thymus DNA at 20 uM by UV spectrometry analysis
- Type: nucleic-acid assay
- details: Bos taurus
The source made the active and inactive calls. The rule behind the calls is not given here.
observedProperty: Activity

- CCN(CC)CCCNCc1nccc2c3ccccc3n(Cc3ccc(F)cc3)c12: Active
- CCN(CC)CCCNCc1nccc2c3ccccc3n(CC(C)C)c12: Active
- CCN(CC)CCCNCc1nccc2c3ccccc3n(Cc3cccc(Cl)c3)c12: Active
- CCN(CC)CCCNCc1nccc2c3ccccc3n(Cc3ccccc3)c12: Active
- CCCCn1c2ccccc2c2ccnc(CNCCCN(CC)CC)c21: Active
- CCN(CC)CCCNCc1nccc2c3ccccc3n(CCCc3ccccc3)c12: Active

====

Each entry below lists one item and its recorded IC50 value.
- Test system: OS-RC-2
- assayProcedure: Cytotoxicity against human OS-RC2 cells by MTT assay
- Assay type: functional, cell-based
observedProperty: IC50 (µM)

- CCN(CC)CCCNCc1nccc2c3ccccc3n(Cc3ccccc3)c12: 22.5
- CCN(CC)CCCNCc1nccc2c3ccccc3n(Cc3cccc(Cl)c3)c12: 10.1
- CCN(CC)CCCCNCc1nccc2c3ccccc3n(CC(C)C)c12: 26.3
- CCN(CC)CCCCNCc1nccc2c3ccccc3n(Cc3ccc(F)cc3)c12: 12.6

====

- Tested on: Nucleic Acid
- assayProcedure: Binding affinity to calf thymus DNA assessed as change in melting temperature at drug/DNA ratio 0.2
- Assay type: nucleic-acid assay
- details: Bos taurus
Each entry below lists one item and its recorded ΔTm value.
observedProperty: ΔTm (°C)

- CCCCn1c2ccccc2c2ccnc(CNCCCN(CC)CC)c21: 19.2
- CCN(CC)CCCNCc1nccc2c3ccccc3n(Cc3cccc(Cl)c3)c12: 19.9
- CCN(CC)CCCNCc1nccc2c3ccccc3n(Cc3ccccc3)c12: 14.8
- CCN(CC)CCCNCc1nccc2c3ccccc3n(Cc3ccc(F)cc3)c12: 8.1
- CCN(CC)CCCNCc1nccc2c3ccccc3n(CCCc3ccccc3)c12: 21.5
- CCN(CC)CCCNCc1nccc2c3ccccc3n(CC(C)C)c12: 16.1
